Target: MRGPRX2 (Homo sapiens, UniProt Q96LB1)
Sequence (Q96LB1 1-330): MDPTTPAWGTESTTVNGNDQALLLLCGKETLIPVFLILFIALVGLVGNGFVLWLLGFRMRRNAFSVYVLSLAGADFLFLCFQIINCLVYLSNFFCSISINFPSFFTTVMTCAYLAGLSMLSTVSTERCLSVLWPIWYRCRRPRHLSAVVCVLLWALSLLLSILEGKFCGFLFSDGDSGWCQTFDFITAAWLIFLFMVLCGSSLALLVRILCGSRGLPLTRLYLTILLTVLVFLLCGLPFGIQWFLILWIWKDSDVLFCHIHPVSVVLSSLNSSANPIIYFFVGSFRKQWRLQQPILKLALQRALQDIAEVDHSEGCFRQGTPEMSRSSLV
Assay: MRGPRX2 β-Arrestin assay
Assay type: cell-based
Set-up: host or cells: PathHunter CHO-K1
Conditions: PathHunter CHO-K1 MRGPRX2 β-Arrestin cell line; agonist Cortistatin 14 0.25 μM
Readout Type: IC50

* O=C(NC1CCC1)N1CC(CNc2cc(C(F)(F)F)nc3ccc(Cl)cc23)(n2cc(F)cn2)C1 | 0.1 to 100 nM
* NS(=O)(=O)N1CC(CNc2cc(C(F)(F)F)nc3ccc(F)cc23)(c2ccc(F)cc2)C1 | 0.1 to 100 nM
* [2H]C([2H])([2H])NC(=O)N1CC(CNc2cc(C(F)(F)F)nc3ccc(Cl)cc23)(n2cc(CC#N)cn2)C1 | 100 to 1000 nM
* NS(=O)(=O)N1CC(CNc2cc(C(F)(F)F)nc3ccc(Cl)cc23)(c2ccccc2)C1 | 0.1 to 100 nM
* NC(=O)N1CC(CNc2cc(C(F)(F)F)nc3ccc(F)cc23)(c2ccc(F)cc2)C1 | 0.1 to 100 nM
* [2H]C([2H])([2H])NC(=O)N1CC(CNc2cc(C(F)(F)F)nc3ccc(Cl)cc23)(n2ncc3c2CCC3)C1 | 0.1 to 100 nM
* O=C(NC1CC(F)(F)C1)N1CC(CNc2cc(C(F)(F)F)nc3ccc(Cl)cc23)(n2cc(F)cn2)C1 | 0.1 to 100 nM

###

Target: MRGPRX2 (Homo sapiens, UniProt Q96LB1)
Sequence (Q96LB1 1-330): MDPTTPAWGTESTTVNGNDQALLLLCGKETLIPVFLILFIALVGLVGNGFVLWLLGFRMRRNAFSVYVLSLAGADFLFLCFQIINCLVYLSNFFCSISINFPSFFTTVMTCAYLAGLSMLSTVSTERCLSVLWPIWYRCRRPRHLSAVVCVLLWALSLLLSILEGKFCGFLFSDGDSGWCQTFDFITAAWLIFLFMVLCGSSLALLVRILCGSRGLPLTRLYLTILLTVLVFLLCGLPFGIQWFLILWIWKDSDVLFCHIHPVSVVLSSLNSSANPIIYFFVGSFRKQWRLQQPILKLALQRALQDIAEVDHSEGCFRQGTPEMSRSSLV
Assay: MRGPRX2 IP1 HTRF assay
Assay type: cell-based
Parameters: host or cells: CHO-K1
Conditions: CHO-K1 cells stably expressing human MRGPRX2; IP1 accumulation, agonist Cortistatin 14 1 μM
pIC50: −log10 of the molar value.
Readout Type: pIC50

- CNC(=O)N1CC(CNc2cc(C(F)(F)F)nc3ccc(Cl)cc23)(c2ccc3cnn(C)c3c2)C1: 6.00 to 7.00
- NS(=O)(=O)N1CC(CNc2cc(C(F)F)nc3ccc(Cl)cc23)(c2ccc(F)cc2)C1: 7.00 to 10.00
- CC(C)NC(=O)N1CC(CNc2cc(C(F)(F)F)nc3ccc(Cl)cc23)(n2cc(F)cn2)C1: 7.00 to 10.00
- NS(=O)(=O)N1CC(CNc2cc(C(F)(F)F)nc3ccc(Cl)cc23)(n2cc(F)cn2)C1: 7.00 to 10.00
- NC(=O)N1CC(CNc2cc(C(F)(F)F)nc3cc(C(F)(F)F)ccc23)(c2ccc(F)cn2)C1: < 6.00
- NC(=O)N1CC(CNc2cc(C(F)(F)F)nc3cccc(F)c23)(c2ccc(F)cn2)C1: < 6.00
- O=C1NC(=O)C2(CC(CNc3cc(C(F)(F)F)nc4ccc(Cl)cc34)(c3ccccc3)C2)N1 (stereo not shown): 7.00 to 10.00
- Cc1nc(CN2CC(CNc3cc(C(F)(F)F)nc4ccc(Cl)cc34)(c3ccc(F)cc3)C2)c[nH]1: 7.00 to 10.00
- Nc1ccc(N2CCC(CNc3cc(C(F)(F)F)nc4ccc(Cl)cc34)(c3ccccc3)CC2)nn1: 7.00 to 10.00
- NC(=O)N1CC(CNc2cc(C(F)(F)F)nc3ccc(Cl)cc23)(n2cc(F)cn2)C1: 7.00 to 10.00
- NC(=O)N1CC(CNc2cc(C(F)(F)F)nc3ccc(F)cc23)(c2ccc(F)cc2)C1: 7.00 to 10.00
- NS(=O)(=O)N1CC(CNc2cc(C(F)(F)F)nc3ccc(Br)cc23)(c2ccc(F)cc2)C1: 7.00 to 10.00
- NS(=O)(=O)N1CC(CNc2cc(C(F)(F)F)nc3ccc(Cl)cc23)(c2ncccc2F)C1: 7.00 to 10.00
- NC(=O)N1CC(CNc2cc(C(F)(F)F)nc3ccc(Br)cc23)(c2ccc(F)cn2)C1: 7.00 to 10.00
- CNC(=O)N1CC(CNc2cc(C(F)(F)F)nc3ccc(Cl)cc23)(n2cc(Br)cn2)C1: 7.00 to 10.00
- NC(=O)N1CC(CNc2cc(C(F)(F)F)nc3ccc(Cl)cc23)(c2ccnc(Cl)c2)C1: 7.00 to 10.00
- NC(=O)N1CC(CNc2cc(C(F)(F)F)nc3ccc(Cl)cc23)(n2cc(Br)cn2)C1: 7.00 to 10.00
- [2H]C([2H])([2H])NC(=O)N1CC(CNc2cc(C(F)(F)F)nc3ccc(Br)cc23)(n2cc(F)cn2)C1: 7.00 to 10.00
- Cc1ccc2nc(C(F)(F)F)cc(NCC3(c4ccc(F)cn4)CN(C(N)=O)C3)c2c1: 6.00 to 7.00
- NC(=O)N1CC(CNc2cc(C(F)(F)F)nc3ccc(Cl)cc23)(c2ccc(F)cc2)C1: 7.00 to 10.00
- NS(=O)(=O)N1CC(CNc2cc(C(F)(F)F)nc3ccc(Cl)cc23)(c2ccc(Cl)cn2)C1: 7.00 to 10.00
- O=C(NC1CCC1)N1CC(CNc2cc(C(F)(F)F)nc3ccc(Cl)cc23)(n2cc(F)cn2)C1: 7.00 to 10.00
- N#C[C@H]1CC[C@H](NC(=O)N2CC(CNc3cc(C(F)(F)F)nc4ccc(Cl)cc34)(c3ccc(F)cc3)C2)CC1: 7.00 to 10.00
- CNC1CCC(CNc2cc(C(F)(F)F)nc3ccc(Cl)cc23)(c2ccccc2)C1 (stereo not shown): 7.00 to 10.00
- CNC(=O)N1CC(CNc2cc(C(F)(F)F)nc3ccc(Cl)cc23)(c2ccccc2)C1: 7.00 to 10.00
- CNC(=O)N1CC(CNc2cc(C(F)(F)F)nc3ccc(Cl)cc23)(n2cc(Cl)cn2)C1: 7.00 to 10.00
- O=C(NC1CC1)N1CC(CNc2cc(C(F)(F)F)nc3ccc(Cl)cc23)(n2cc(F)cn2)C1: 7.00 to 10.00
- O=C(NC1CC(O)C1)N1CC(CNc2cc(C(F)(F)F)nc3ccc(Cl)cc23)(n2cc(F)cn2)C1 (stereo not shown): 7.00 to 10.00
- CNC(=O)N1CC(CNc2cc(C(F)(F)F)nc3ccc(Cl)cc23)(n2cc(F)cn2)C1: 7.00 to 10.00
- [O-][n+]1ccc(CN2CC(CNc3cc(C(F)(F)F)nc4ccc(Cl)cc34)(c3ccc(F)cc3)C2)cc1: 7.00 to 10.00
- Cc1csc(C2(CNc3cc(C(F)(F)F)nc4ccc(Cl)cc34)CN(S(N)(=O)=O)C2)n1: 6.00 to 7.00

Source: patent US20250084063A1
